Answer each item with its documented growth.
tested on: LOX IMVI melanoma; test: NCI-60 one-dose screen, 48 h (100 = growth as untreated, 0 = no growth, -100 = all killed); details: 10 µM unless noted
The panel holds about 83,000 compounds, 20% with a hit somewhere; the sample as a whole holds those more often.
Answers are plain numbers, in %.

Sample answers from the record:
- CC(C)c1ccc2c(c1)CCC1C2CCCC1(C)NCc1ccccc1 (configuration not stated): 52.1
- CCOC(=O)c1cc(C(=O)OCC)c(C)nc1C: 107
- CCCCCCCC/C=C/CCCCCCCC1=NC(C)(C)CN1c1ccccc1: 85.3
- CN(C)CC(=O)c1ccc2cc(Br)c3ccccc3c2c1: 43.6
- COc1ccc2c(c1)C1=NN(C(=O)CO)[C@H](c3ccc(OC(F)(F)F)cc3)[C@@H]1CC2: 88.7
- CCn1c(=O)c(C(=O)NCCCO)c(O)c2ccccc21: 98.5
- O=C1OCC2=C1C(c1ccccc1)c1cc3c(cc1N2CCO)CCC3 (configuration not stated): 28.5
- O=C(/C=C/c1ccc(F)cc1)N1CCN(C(=O)/C=C/c2ccc(C(F)(F)F)cc2)CC1: 111

Answer for every listed entry: what is its growth? The entries follow.
1. CNC(=O)c1c(NC(=O)c2cccc(C(F)(F)F)c2)sc2c1CCC(=O)C2
2. CCCCOc1nc2ccccc2cc1/C=C/c1cc(/C=C/c2cc3ccccc3nc2OCCCC)n(-c2ccccc2)n1
3. C=CCN1C(=O)/C(=c2\sc3n(c2=O)C2C(NN=3)N(CC)C(=O)N2CC)c2ccccc21 (configuration not stated)
4. CC(=O)O[C@@H]1CC2C(C)(C)CCCC2(C)C2=C1C(=O)C(C(C)C)=CC2=O (some centres not stated)
5. COc1cc(C)c(Cl)cc1C1=NN(c2ccc(S(N)(=O)=O)cc2)C(/C=C/c2ccccc2)C1 (configuration not stated)
6. COc1ccc(-c2cc(C(=O)Nc3ccc(Br)cc3)nc3[nH]c(=O)sc23)cc1

### Response
[-49.6, 95.9, 28.9, 10.6, 51.6, 36.7]

Answer for every listed entry: what is its growth? The entries follow.
1. CCNC(=O)c1ccc2c(c1)nc(-c1ccc(Cl)cc1)n2-c1cc(C(C)(C)C)[nH]n1
2. COc1ccc(Oc2nc(Nc3ccc(N4CCOCC4)cc3)ncc2NC(=O)Nc2cccc(OC)c2)cc1
3. NC(=S)N1N=C(c2ccc(Cl)cc2)CC1c1cc2ccccc2[nH]c1=O (configuration not stated)
4. COc1cccc(N2CCN(c3ncnc4cc[nH]c34)CC2)c1

### Response
[33.1, 76.7, 105, 51.6]

Answer for every listed entry: what is its growth? The entries follow.
1. Cc1c2c(cc3c1[nH]c1ccccc13)C=NCC2
2. CN1C(=O)C(C(=O)/C=C/c2ccccc2C(=O)O)C(=O)N(C)C1=O
3. Oc1c(C(Nc2ccccc2Br)c2ccccc2)ccc2cccnc12 (configuration not stated)
4. Fc1ccc(-c2nc(-c3ccc(-c4nc5ccc(F)cc5[nH]4)cc3)no2)cc1
5. CC1OC(n2c3ccccc3c3c4c(c5c6ccccc6[nH]c5c32)C(=O)N(CCN[C@H]2CCC[C@@H]2N)C4=O)CC(O)C1O (some centres not stated)
6. COc1cc(C2CC(c3ccc(Cl)cc3)=NN2C=O)ccc1Oc1ccnc2cc(Cl)ccc12 (configuration not stated)
7. CCN1C(=O)N(CC)C2C1NN=c1s/c(=C\c3ccco3)c(=O)n12 (configuration not stated)

### Response
87.4
94.7
10.5
43.5
20.3
74.2
40.4

Answer for every listed entry: what is its growth? The entries follow.
1. CCCCCCCOc1cccc(/C=C2\N=C3SCCCN3C2=O)c1
2. CCOC(=O)C1=C(C(=O)OCC)N(c2cc(OC)c(OC)c(OC)c2)C(N)=C(C#N)C1c1cc(=O)[nH]c2ccccc12 (configuration not stated)

### Response
96.2
93.7

###

tested on: SNB-19 CNS; experiment: NCI-60 one-dose screen, 48 h (100 = growth as untreated, 0 = no growth, -100 = all killed); conditions: 10 µM unless noted
About 83,000 compounds went through this panel and 20% of them were active in at least one assay; those are over-represented in the sample as a whole.
Answer each item with its documented growth.
Give bare numbers, in %.

Sample answers from the record:
- Nc1ncnc2c1N=C(c1ccc3c(c1)OCO3)CC(c1ccc(Cl)cc1)N2 (stereo unspecified): 67.8
- COc1cc(C2CC(c3ccccc3)=NN2C=O)ccc1Oc1ccnc2cc(Cl)ccc12 (stereo unspecified): 71.2
- CN1C(=O)NC(Cc2c[nH]c3c(Cl)cccc23)C1=O (stereo unspecified): 106
- CCOC(=O)Nc1ccc2nc(Sc3ccc(Cl)cc3)sc2c1: 48.3
- CCCCCCCCCCCC1=NC(C)(C)CN1CCO: 100

Answer for every listed entry: what is its growth? The entries follow.
1. OC(COCc1ccccc1)COCc1ccccc1
2. O=C(Nc1cccc(Cl)c1)Nc1ccccc1Cl
3. NC(N)=NC1CCCCC1

### Response
1. 111
2. 102
3. 104

Answer for every listed entry: what is its growth? The entries follow.
1. Oc1c(C(Nc2ccccc2Br)c2ccccc2)ccc2cccnc12 (stereo unspecified)
2. CCN(CC)c1cc(C)c(Cc2c(OC)ccc3ccccc23)cc1C
3. CC1(C)CN(CCNc2nccc(-c3c(-c4cccc(O)c4)nc4sccn34)n2)S(=O)(=O)N1
4. CC(C)CCSc1nc(-c2ccc(F)cc2)c(C#N)c(N2CCCCC2)n1
5. N=c1nc(N2CCCCC2)cc(N)n1O
6. Cc1csc(N/N=C/c2ccncc2)n1
7. CC1=CCC2C1CC=C(C)C(CC[C@H]1[C@@](C)(O)CCC3OC(C)(C)[C@H](OC(=O)c4ccccc4)CC[C@@]31C)C2(C)C (stereo partly specified)
8. CC(=O)CC(c1ccc([N+](=O)[O-])cc1)c1c(O)c2ccccc2oc1=O (stereo unspecified)

### Response
1: 31.7; 2: 93.2; 3: 87.8; 4: 102; 5: 99.8; 6: 100; 7: 105; 8: 109

###

tested on: SK-MEL-28 melanoma; assay: NCI-60 one-dose screen, 48 h (100 = growth as untreated, 0 = no growth, -100 = all killed); settings: 10 µM unless noted
About 83,000 compounds went through this panel and 20% of them were active in at least one assay; those are over-represented in the sample as a whole.
Rule for this label: y means growth is less than 70%; n means growth is at least 70%.

- COC1(OC)C2(Cl)CCC1(Cl)C(Cl)=C2Cl: n

### Prompt # strict comparison: is reported growth < 70%? input = CC1(C)OC2OC3C(CN)OC(c4ccccc4)OC3C2O1 (stereo unspecified)
### Response n

### Prompt # strict comparison: is reported growth < 70%? input = COc1cc(CN(CCC(O)N2CCCC2=O)Cc2ccc3c(c2)OCO3)cc(OC)c1OC (stereo unspecified)
### Response n

### Prompt # strict comparison: is reported growth < 70%? input = CN1C(=O)NC(Cc2c[nH]c3c(Cl)cccc23)C1=O (stereo unspecified)
### Response n

### Prompt # strict comparison: is reported growth < 70%? input = CC(C)[C@@]12C[C@@H](OC(=O)C3CO3)[C@@](C)(O1)[C@@H]1CC[C@@H](C)[C@H]1[C@@H]2OC(=O)/C=C/c1ccccc1 (stereo partly specified)
### Response n

### Prompt # strict comparison: is reported growth < 70%? input = `CC(C)CCSc1nc(-c2ccc(F)cc2)c(C#N)c(N2CCCCC2)n1`
### Response n

###

test system: HCC-2998 colon; experiment: NCI-60 one-dose screen, 48 h; conditions: 10 µM unless noted
This is part of a sample that, as a whole, favours compounds with a hit. Of some 83,000 tested, about 20% had one in any assay. Activity calls are given as the source filed them. Rule for the calls: active = growth percent below 10; inactive = the rest.
Response enum: active, inactive

- O=C(N/N=C\c1cc(Br)ccc1O)c1ccncc1: inactive

### Prompt Which outcome did this test record for the molecule `N=C(N)c1ccc(-c2ccc(-c3cccs3)s2)cc1F` ?
### Response active

### Prompt Which outcome did this test record for the molecule `COc1ccccc1CNCCCN1C(=O)c2ccc3c4c(ccc(c24)C1=O)C(=O)N(CCCOCCCCOCCCN)C3=O` ?
### Response active

###

system: UACC-257 melanoma; assay: NCI-60 one-dose screen, 48 h; conditions: 10 µM unless noted
The panel holds about 83,000 compounds, 20% with a hit somewhere; the sample as a whole holds those more often. Active and inactive are the calls of the source. Rule for the calls: active = growth percent below 10; inactive = the rest.
Response enum: active, inactive

Some entries whose results are on file:
* CC(C)(C)c1nn(-c2ccccc2)c2c1C(=O)CSC(c1ccc3c(c1)OCO3)N2 (configuration not stated) | inactive
* C[N+](C)(C)CC(=O)N/N=C\c1ccco1 | inactive
* CS(=O)(=O)c1ccc(C(=O)N/N=C/c2ccccc2Cl)cc1 | inactive
* Cc1ccccc1NC(=O)c1sc2nc3c(cc2c1N)C(=O)CCC3 | inactive

### Prompt Which outcome did this test record for the molecule `CN1C(=O)C(C(=O)/C=C/c2ccccc2C(=O)O)C(=O)N(C)C1=O` ?
### Response inactive

### Prompt Which outcome did this test record for the molecule `Clc1ccc(-c2nc(-c3cccs3)no2)cc1` ?
### Response inactive
